Below is a list of entries, each paired with its recorded percentage damage caused to the plant, ECHCG (five-point scale) value.
System: Echinochloa crus-galli (ECHCG)
assay.details: Post-emergence Test, Echinochloa crus-galli (ECHCG)
Format: in vivo
Set-up: key: 5=81-100%, 4=61-80%, 3=41-60%, 2=21-40%, 1=0-20% damage
run.conditions: 1000 g/ha, evaluated after 13 days
value.kind: percentage damage caused to the plant, ECHCG (five-point scale)

> print(dat)
                                 test.smiles  reported.value
 1  CCn1c(Cn2nc(C(F)(F)F)c3c2CCOC3)cc(=O)c(C(=O)O)c1-c1ccc(Cl)c(Cl)c1     1 (1=0-20%)
 2  CCn1c(Cn2nccc2C#N)cc(=O)c(C(=O)O)c1-c1ccc(Cl)c(Cl)c1    4 (4=61-80%)
 3  CCn1c(Cn2ccc(C(F)(F)F)n2)c(-c2ccc(Cl)cc2)c(=O)c(C(=O)O)c1-c1ccc(Cl)c(Cl)c1               0
 4  CCn1c(Cn2nc(C(F)(F)F)cc2O)cc(=O)c(C(=O)O)c1-c1ccc(Cl)c(Cl)c1               0
 5  CCn1c(Cn2ccc(C(F)(F)F)n2)cc(=O)c(C(=O)O)c1-c1ccc(Cl)c(C#N)c1    4 (4=61-80%)
 6  CCn1c(Cn2cnc(C(F)(F)F)c2)cc(=O)c(C(=O)O)c1-c1ccc(Cl)c(Cl)c1               0
 7  CCn1c(Cn2ccc(NC(C)=O)n2)cc(=O)c(C(=O)O)c1-c1ccc(Cl)c(Cl)c1               0
 8  CCn1c(Cn2ccc(C(F)(F)F)n2)c(Br)c(=O)c(C(=O)O)c1-c1ccc(Cl)c(Cl)c1    3 (3=41-60%)
 9  CCn1c(Cn2cnc([N+](=O)[O-])c2)cc(=O)c(C(=O)O)c1-c1ccc(Cl)c(Cl)c1     1 (1=0-20%)
10  CCn1c(Cn2nc(C(F)(F)F)cc2OCCOC)cc(=O)c(C(=O)O)c1-c1ccc(Cl)c(Cl)c1    3 (3=41-60%)
11  CCn1c(Cn2cnc(C(=O)OC)c2C(=O)OC)cc(=O)c(C(=O)O)c1-c1ccc(Cl)c(Cl)c1    2 (2=21-40%)
12  CCOC(=O)c1c(-c2ccc(Cl)c(Cl)c2)n(CC)c(Cn2cnc([N+](=O)[O-])n2)cc1=O     1 (1=0-20%)
13  CCCOc1ccn(Cc2cc(=O)c(C(=O)O)c(-c3ccc(Cl)c(Cl)c3)n2CC)n1    4 (4=61-80%)
14  CCOC(=O)c1nccn1Cc1cc(=O)c(C(=O)O)c(-c2ccc(Cl)c(Cl)c2)n1CC     1 (1=0-20%)
15  CCC(=O)Nc1ccn(Cc2cc(=O)c(C(=O)O)c(-c3ccc(Cl)c(Cl)c3)n2CC)n1               0
16  CCn1c(Cn2cnc(C(=O)OC)c2)cc(=O)c(C(=O)O)c1-c1ccc(Cl)c(Cl)c1               0
17  CCn1c(Cn2cnc(C#N)c2C#N)cc(=O)c(C(=O)O)c1-c1ccc(Cl)c(Cl)c1     1 (1=0-20%)
18  CCn1c(Cn2cncc2C(F)(F)F)cc(=O)c(C(=O)O)c1-c1ccc(Cl)c(Cl)c1    4 (4=61-80%)
19  CCn1c(Cn2cc(C(=O)OC)cn2)cc(=O)c(C(=O)OC(C)(C)C)c1-c1ccc(Cl)c(Cl)c1               0
20  CCn1c(Cn2nc(C(F)F)c3c2CCOC3)cc(=O)c(C(=O)O)c1-c1ccc(Cl)c(Cl)c1     1 (1=0-20%)
21  CCn1c(Cn2nc(C(F)(F)F)cc2OC)cc(=O)c(C(=O)O)c1-c1ccc(Cl)c(Cl)c1    4 (4=61-80%)
22  CCn1c(Cn2ccc(O)n2)cc(=O)c(C(=O)O)c1-c1ccc(Cl)c(Cl)c1               0
23  C/C=C/C(=O)Nc1ccn(Cc2cc(=O)c(C(=O)O)c(-c3ccc(Cl)c(Cl)c3)n2CC)n1     1 (1=0-20%)
24  CCOCc1ccn(Cc2cc(=O)c(C(=O)O)c(-c3ccc(Cl)c(Cl)c3)n2CC)n1    4 (4=61-80%)
25  CCOC(=O)c1nn(Cc2cc(=O)c(C(=O)O)c(-c3ccc(Cl)c(Cl)c3)n2CC)cc1C     1 (1=0-20%)
26  CCn1c(Cn2ccc(C(F)(F)F)n2)cc(=O)c(C(=O)O)c1-c1ccc(Cl)c(S(C)(=O)=O)c1     1 (1=0-20%)
27  Cn1c(Cn2ccc(C(F)(F)F)n2)cc(=O)c(C(=O)O)c1-c1ccc(C#N)c(Cl)c1    4 (4=61-80%)
28  CCOC(=O)c1c(-c2ccc(Cl)c(Cl)c2)n(CC)c(Cn2cnc([N+](=O)[O-])c2)cc1=O     1 (1=0-20%)
29  CCn1c(Cn2ccc(OC)n2)cc(=O)c(C(=O)O)c1-c1ccc(Cl)c(Cl)c1    4 (4=61-80%)
30  CCOC(=O)c1cc(C(=O)OCC)n(Cc2cc(=O)c(C(=O)O)c(-c3ccc(Cl)c(Cl)c3)n2CC)n1    2 (2=21-40%)

Cited source for all entries: patent US20250098679A1
